METHOD DESCRIPTION: chemical genetic growth profiling, strain panel (AID 1159580);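 further: tested at 20 µM; growth read once vehicle control cultures reached saturation at 30 °C; 1 = growth at the plate median or of vehicle wells; lower values mean less growth of the strain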
TEST CONTEXT: S. cerevisiae deletion strains, growth OD, locus YKL160W, strain elf1, active compounds read low
About 2,000 (36%) of roughly 5,500 compounds were called active. Another 18% or so got no clear call; they are omitted. The list shows a part of the results.
RECORDED METRIC: normalized growth
Field format: numeric only.

OC[C@H]1O[C@@H](Oc2ccc(O)cc2)[C@H](O)[C@@H](O)[C@@H]1O; 1
NC(Cc1ccc(Cl)cc1)C(=O)O (stereo unspecified); 0.996
C[C@H]1C(=O)CCC2[C@]3(C)CC[C@@]4(C)C5CC(C)(C)CC[C@]5(C)CC[C@]4(C)C3CC[C@@]21C (stereo partly specified); 1.01
CC[C@H]1OC(=O)[C@H](C)[C@@H](O[C@H]2C[C@@](C)(OC)[C@@H](O)[C@H](C)O2)[C@H](C)[C@@H](O[C@@H]2O[C@H](C)C[C@H](N(C)C)[C@H]2O)[C@](C)(O)C[C@@H](C)/C(=N/OCOCCOC)[C@H](C)[C@@H](O)[C@]1(C)O; 1.02
CN1CCCCC1c1ccc(-c2cccnc2)nc1 (stereo unspecified); 1.01

## Task Item under review: O=c1c(O)c(-c2ccccc2)oc2cccc(O)c12 . Reported normalized growth?
## Result 0.881

## Task Which normalized growth value is on record for O=C(/C=C/c1ccc(O)cc1)c1ccc(O)cc1O ?
## Result 0.988
